Quick reference: logP of the listed items.

compound	logP
NC1=NCC(COc2ccccc2Cc2ccccc2)O1 (configuration not stated)	3.05

[in] For CCC(C)(C)c1ccc(OCC2CN=C(N)O2)cc1 (configuration not stated) , what is its reported logP?
[out] 3.69

====

protocol-description: method code SF-HPLC, from DOI: 10.1080/10826079708014133
measurement-conditions: pH 11.0
Measured logD by item
Just the number.

compound	logD
Cc1ccc(C)c(OCC2CN=C(N)O2)c1 (stereo not given)	2.29
NC1=NCC(COc2cccc(Cl)c2)O1 (stereo not given)	2.09
Cc1cccc(C)c1OCC1CN=C(N)O1 (stereo not given)	2
CCc1ccc(OCC2CN=C(N)O2)cc1 (stereo not given)	2.27
NC1=NCC(COc2ccc(-c3ccccc3)cc2)O1 (stereo not given)	2.8

// moving on: another record for logD
[in] Need logD, item Cc1ccc(OCC2CN=C(N)O2)c(C)c1 (stereo not given)
[out] 2.23

====

protocol-description: method code SF-HPLC, from DOI: 10.1080/10826079708014133
measurement-conditions: pH 11.0
measure-name: logD
Please give only the number in your answer, with no unit.

Consider the worked cases shown below.
compound	logD
Cc1ccc(OCC2CN=C(N)O2)cc1C (centres undefined)	2.1
NC1=NCC(COc2cccc(C(F)(F)F)c2)O1 (centres undefined)	2.35
Cc1cccc(OCC2CN=C(N)O2)c1C (centres undefined)	2.25

The record that follows has no logD shown yet.
[in] Quick one: logD of Cc1cccc(OCC2CN=C(N)O2)c1 (centres undefined) ?
[out] 1.75
